target: Rat NHE3 (Rattus norvegicus, UniProt P26433); construct: expressed in transfected cells; host or cells: Opossum kidney (OK) cells (ATCC), electroporation; assay: Cell-based NHE3 activity under prompt conditions (OK cells, BCECF pH recovery), rat NHE3; details: prompt conditions; read-out: Prompt Rat NHE3 pIC50 (converted)
Sequence (P26433 29-831): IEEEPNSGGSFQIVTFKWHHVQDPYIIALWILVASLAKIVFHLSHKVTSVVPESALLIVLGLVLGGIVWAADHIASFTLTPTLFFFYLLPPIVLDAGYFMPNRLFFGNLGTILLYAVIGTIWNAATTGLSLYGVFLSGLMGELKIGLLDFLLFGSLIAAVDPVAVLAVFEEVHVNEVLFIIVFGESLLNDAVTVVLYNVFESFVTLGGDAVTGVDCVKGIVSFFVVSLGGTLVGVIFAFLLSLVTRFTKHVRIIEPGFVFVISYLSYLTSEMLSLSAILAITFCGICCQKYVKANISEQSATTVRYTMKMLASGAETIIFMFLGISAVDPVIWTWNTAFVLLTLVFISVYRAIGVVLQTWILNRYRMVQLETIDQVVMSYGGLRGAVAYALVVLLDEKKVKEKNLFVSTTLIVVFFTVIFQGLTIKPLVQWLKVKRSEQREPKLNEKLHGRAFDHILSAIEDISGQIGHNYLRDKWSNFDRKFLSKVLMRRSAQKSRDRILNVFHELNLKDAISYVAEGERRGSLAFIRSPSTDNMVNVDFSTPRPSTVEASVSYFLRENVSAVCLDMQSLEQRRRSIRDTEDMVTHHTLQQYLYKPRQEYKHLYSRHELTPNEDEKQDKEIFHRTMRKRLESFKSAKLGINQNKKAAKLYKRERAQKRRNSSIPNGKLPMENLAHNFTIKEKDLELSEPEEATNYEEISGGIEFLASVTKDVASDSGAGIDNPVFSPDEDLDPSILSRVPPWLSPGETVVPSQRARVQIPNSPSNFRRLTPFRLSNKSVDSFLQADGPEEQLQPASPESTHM
measure: IC50 (nM)

(a) O=C(NCCCCNC(=O)NCCOCCOCCNS(=O)(=O)c1ccc(O[C@H]2c3ccccc3C[C@@H]2N2CCCCC2)cc1)NCCOCCOCCNS(=O)(=O)c1ccc(O[C@H]2c3ccccc3C[C@@H]2N2CCCCC2)cc1 (racemic) [compound 47]
(b) O=C(NCCOCCOCCOCCNS(=O)(=O)c1ccc(OC2c3ccccc3CC2N2CCCCC2)cc1)C(O)C(O)C(=O)NCCOCCOCCOCCNS(=O)(=O)c1ccc(OC2c3ccccc3CC2N2CCCCC2)cc1 (mixture of isomers) [compound 55]
Prompt: Between a and b , whose recorded IC50 is greater? Answer by quoting the chosen item's label.
Response: a
(a: 50.1 nM, b: 20 nM)

(a) CN(CC(=O)NCCOCCOCCOCCN1CCN(c2ccc(-c3nc(NC(=N)N)nc4ccc(Cl)cc34)cc2)CC1)CC(=O)NCCOCCOCCOCCN1CCN(c2ccc(-c3c(Cl)ccc4nc(NC(=N)N)ncc34)cc2)CC1 [compound 21]
(b) O=C(NCCCCNC(=O)NCCOCCOCCOCCNS(=O)(=O)c1ccc(O[C@H]2c3ccccc3C[C@@H]2N2CCCCC2)cc1)NCCOCCOCCOCCNS(=O)(=O)c1ccc(O[C@H]2c3ccccc3C[C@@H]2N2CCCCC2)cc1 [compound 72]
Prompt: Of a and b , whose reported IC50 is numerically smaller? Answer by quoting the chosen item's label.
Response: b
(b: 5.01 nM, a: 794 nM)

###

target: Human NHE3 (Homo sapiens); construct: expressed in transfected cells; host or cells: Opossum kidney (OK) cells (ATCC), electroporation; assay: Cell-based NHE3 activity under prompt conditions (OK cells, BCECF pH recovery), human NHE3; settings: prompt conditions
Sequence (P48764 26-834): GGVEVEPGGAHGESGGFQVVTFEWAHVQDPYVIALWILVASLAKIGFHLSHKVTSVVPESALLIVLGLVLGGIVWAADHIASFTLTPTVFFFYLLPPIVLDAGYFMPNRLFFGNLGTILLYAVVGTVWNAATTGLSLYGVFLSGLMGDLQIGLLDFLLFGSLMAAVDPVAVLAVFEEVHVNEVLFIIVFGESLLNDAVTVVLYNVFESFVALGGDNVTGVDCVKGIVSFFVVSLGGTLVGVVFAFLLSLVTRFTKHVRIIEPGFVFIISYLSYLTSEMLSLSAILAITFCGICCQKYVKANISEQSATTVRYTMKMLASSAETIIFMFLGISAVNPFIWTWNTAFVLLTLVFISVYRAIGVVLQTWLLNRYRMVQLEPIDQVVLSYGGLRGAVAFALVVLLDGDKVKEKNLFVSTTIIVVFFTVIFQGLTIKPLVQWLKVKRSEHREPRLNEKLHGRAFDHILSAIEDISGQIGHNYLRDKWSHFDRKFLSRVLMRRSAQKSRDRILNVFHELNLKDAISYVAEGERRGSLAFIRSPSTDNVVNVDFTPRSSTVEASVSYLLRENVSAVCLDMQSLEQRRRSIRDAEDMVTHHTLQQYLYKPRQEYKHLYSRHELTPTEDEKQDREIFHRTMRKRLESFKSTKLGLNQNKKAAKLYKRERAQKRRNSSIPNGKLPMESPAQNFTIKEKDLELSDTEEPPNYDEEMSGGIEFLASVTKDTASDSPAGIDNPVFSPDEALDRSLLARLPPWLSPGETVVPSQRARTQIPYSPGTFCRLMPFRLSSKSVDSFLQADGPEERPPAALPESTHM
measure: Prompt Human NHE3 pIC50

{"compound": "NC(N)=Nc1nc(-c2ccc(N3CCN(CCOCCOCCOCCNC(=O)NCCOCCOCCNC(=O)CN(CCN(CC(=O)O)CC(=O)NCCOCCOCCNC(=O)NCCOCCOCCOCCN4CCN(c5ccc(-c6nc(N=C(N)N)nc7ccc(Cl)cc67)cc5)CC4)CC(=O)O)CC3)cc2)c2cc(Cl)ccc2n1 [compound 46]", "Prompt Human NHE3 pIC50": 7.90}
{"compound": "CN1Cc2c(Cl)cc(Cl)cc2[C@H](c2cccc(S(=O)(=O)NCCOCCOCCNC(=O)CCC(CCC(=O)NCCOCCOCCNS(=O)(=O)c3cccc([C@@H]4CN(C)Cc5c(Cl)cc(Cl)cc54)c3)(CCC(=O)NCCOCCOCCNS(=O)(=O)c3cccc([C@@H]4CN(C)Cc5c(Cl)cc(Cl)cc54)c3)NC(=O)NCC(=O)O)c2)C1 [compound 164]", "Prompt Human NHE3 pIC50": 8.13}
{"compound": "O=C(NCCOCCOCCOCCNS(=O)(=O)c1ccc(O[C@H]2c3ccccc3C[C@@H]2N2CCCCC2)cc1)c1cccc(C(=O)NCCOCCOCCOCCNS(=O)(=O)c2ccc(O[C@H]3c4ccccc4C[C@@H]3N3CCCCC3)cc2)c1 [compound 118]", "Prompt Human NHE3 pIC50": 8.10}
{"compound": "O=C(NCCOCCOCCNS(=O)(=O)c1ccc(O[C@H]2c3ccccc3C[C@@H]2N2CCCCC2)cc1)[C@H](O)[C@@H](O)C(=O)NCCOCCOCCNS(=O)(=O)c1ccc(O[C@H]2c3ccccc3C[C@@H]2N2CCCCC2)cc1 [compound 98]", "Prompt Human NHE3 pIC50": 8.10}

Origin of the recorded values: patent US20240366589A1
